measured_on: T1, Anti-CD28 Fab (SEQ ID NOs: 696, 697)
T1 construct: In the phage ELISA the Fab was biotinylated and captured on neutravidin coated plates
method_summary: phage ELISA, clonal phage on biotinylated anti-CD28 Fab captured on neutravidin plates;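 further: crude clonal phage supernatants added to wells pretreated with CD28 antigen or with blocking buffer only, bound phage detected by HRP-linked anti-M13 antibody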
measured_property: Anti-CD28 Fab signal (phage binding ELISA)
Form field (numeric): enter value without unit.

Please look up its Anti-CD28 Fab signal (phage binding ELISA): YCDGHLDEYMLKCL [Phage-1053]
1.43

Now the binder YCDGHAPEYLGKCL [Phage-1059]
1.41

Thanks! And YCDGHSLEYIEKCL [Phage-1051] ?
1.43

Now the same for YCQGHSPNYITKCF [Phage-1058]
1.41

Next up: YCDGHSLEYIDKCM [Phage-1057]
1.42

Request: YCDGHSHEYMQKCL [Phage-1061]
1.41

And then YCLGHSWPYIHKCY [Phage-1052] , what is it?
1.43

Can you handle YCAGHAEEYLEKCL [Phage-1060] next?
1.41

Can you handle YCDGHTPEYMWKCL [Phage-1054] next?
1.43

One more binder: YCDGHSPAFIQKCL [Phage-1056]
1.42

Do the same for YCDGHLPEYIAKCQ [Phage-1050] please
1.43

Do the same for YCVGHLPQYMQKCL [Phage-1049] please
1.43

YCEGHSQQYMQKCL [Phage-1055] , same question.
1.42
